Cytochrome P450 2C9 (Homo sapiens): reported AC50 for various compounds.
Sequence (P11712 whole entry): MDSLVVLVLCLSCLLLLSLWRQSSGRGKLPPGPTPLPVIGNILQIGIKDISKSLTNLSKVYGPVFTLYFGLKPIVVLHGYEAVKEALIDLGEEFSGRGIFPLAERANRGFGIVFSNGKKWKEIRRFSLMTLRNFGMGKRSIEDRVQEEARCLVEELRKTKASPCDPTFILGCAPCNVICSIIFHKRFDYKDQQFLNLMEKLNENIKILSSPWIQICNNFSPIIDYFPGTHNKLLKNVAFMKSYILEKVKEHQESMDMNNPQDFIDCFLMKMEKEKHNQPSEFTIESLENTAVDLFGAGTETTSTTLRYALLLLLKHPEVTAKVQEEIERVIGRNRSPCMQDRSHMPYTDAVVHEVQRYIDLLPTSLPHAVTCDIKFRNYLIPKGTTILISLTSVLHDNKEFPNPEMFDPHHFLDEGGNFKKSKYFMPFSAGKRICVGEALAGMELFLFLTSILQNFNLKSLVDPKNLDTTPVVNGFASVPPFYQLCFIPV

>  <compound>
Cc1cccc(NC2(C(F)(F)F)N=C(c3ccccc3)NC2=O)n1 (stereo not given)

>  <assayed-system>
Cytochrome P450 2C9 (Homo sapiens)

>  <AC50>
12.6 µM (inconclusive)

$$$$
>  <compound>
O=C(O)c1sc2cc(C(F)(F)F)cnc2c1-c1ccccc1

>  <assayed-system>
Cytochrome P450 2C9 (Homo sapiens)

>  <AC50>
28.2 µM (inconclusive)

$$$$
>  <compound>
O=C(O)CCC/C=C\C[C@@H]1CO[C@H](C(F)(F)F)O[C@@H]1c1ccccc1O

>  <assayed-system>
Cytochrome P450 2C9 (Homo sapiens)

>  <AC50>
20 µM (inconclusive)

$$$$
>  <compound>
CCS(=O)(=O)c1ccc2c(c1)N(S(=O)(=O)c1ccccc1)CC(C(=O)O)O2 (stereo not given)

>  <assayed-system>
Cytochrome P450 2C9 (Homo sapiens)

>  <AC50>
12.6 µM (inconclusive)

$$$$
>  <compound>
O=C(c1csnn1)N1CCC2(CC1)CCN(c1ccncc1)CC2

>  <assayed-system>
Cytochrome P450 2C9 (Homo sapiens)

>  <AC50>
15.8 µM (inconclusive)

$$$$
>  <compound>
CSc1nsc(SC)c1C(=O)Nc1ccc(C)cc1

>  <assayed-system>
Cytochrome P450 2C9 (Homo sapiens)

>  <AC50>
15.8 µM (inconclusive)

$$$$
>  <compound>
CS(=O)(=O)N1CCN(c2c(Cl)cccc2[N+](=O)[O-])CC1

>  <assayed-system>
Cytochrome P450 2C9 (Homo sapiens)

>  <AC50>
0.251 µM (inconclusive)

$$$$
>  <compound>
Cc1cc(C(C)(C)C)cc(CNC2CCCCC2)c1O

>  <assayed-system>
Cytochrome P450 2C9 (Homo sapiens)

>  <AC50>
7.94 µM (inconclusive)

$$$$
>  <compound>
COC(=O)[C@@]1(Cc2ccc(OC)cc2)[C@@H]2[C@@H](CC(=O)[C@H]2CC(=O)C(=O)N2CCCC2)CN1C(=O)c1ccccc1

>  <assayed-system>
Cytochrome P450 2C9 (Homo sapiens)

>  <AC50>
20 µM (inconclusive)

$$$$
>  <compound>
COc1ccc2c(c[n+](C)c3c4cc5c(cc4ccc23)OCO5)c1OC

>  <assayed-system>
Cytochrome P450 2C9 (Homo sapiens)

>  <AC50>
39.8 µM (inconclusive)

$$$$

----------
Entries annotated with measured EC50
# assay-explanation: Luminescence Cell-Based Dose Confirmation HTS to Identify Inhibitors of Platelet Dense Granule Release. [Related pubchem assays: 1663 (Primary HTS), 1678 (Summary of Project)]
# Format: functional
Activity calls are given as the source filed them.
measured-parameter: EC50

>  <smiles-str>
CCOc1cccc(-c2c(C(=O)N/N=C/c3ccco3)nnn2-c2nonc2N)c1

>  <measured-parameter>
EC50

>  <observed-value>
14.8 µM (active)

$$$$
>  <smiles-str>
Cc1ccccc1N=C(S)c1ccc2ccccc2n1

>  <measured-parameter>
EC50

>  <observed-value>
> 112 µM (not active)

$$$$
>  <smiles-str>
Cn1c(N/N=C/c2cc3ccccc3nc2Cl)nc2ccccc21

>  <measured-parameter>
EC50

>  <observed-value>
6.52 µM (active)

$$$$
>  <smiles-str>
Cc1nc2cc(NC(=O)Nc3cccc(F)c3)ccc2n1C

>  <measured-parameter>
EC50

>  <observed-value>
7.45 µM (active)

$$$$
>  <smiles-str>
COc1ccc(-c2nn(-c3ccccc3)cc2C(=O)O)cc1

>  <measured-parameter>
EC50

>  <observed-value>
> 112 µM (not active)

$$$$
>  <smiles-str>
Nc1nc2sc3c(c2cc1C(=O)N1CCOCC1)CCCC3

>  <measured-parameter>
EC50

>  <observed-value>
> 112 µM (not active)

$$$$
